Each recorded value in this set is attributed to patent US10793576B2.

# System: DOHH2 cells
# Test Protocol: Cell proliferation inhibition in vitro, DOHH2 cells by CTG assay
# Assay type: cell-based
# Protocol Conditions: Homo sapiens, DOHH-2, 72 hours, read-out: Inhibitions of cell activities IC50 (nM) DOHH2
Measured Metric: IC50 (nM)

[
  {
    "Compound": "CN(C)C/C=C/C(=O)N1CC2CCCC2[C@H]1c1nc(-c2ccc(C(=O)Nc3ccccn3)cc2)c2c(N)nccn12 (some centres unmarked)",
    "Experimental System": "DOHH2 cells",
    "Limit Qualifier": ">",
    "Numeric Readout": 1000
  },
  {
    "Compound": "C=CC(=O)N1C2CC[C@@H](C2)C1c1nc(-c2ccc(C(=O)Nc3cc(Cl)ccn3)cc2)c2c(N)nccn12 (some centres unmarked)",
    "Experimental System": "DOHH2 cells",
    "Limit Qualifier": "=",
    "Numeric Readout": 677
  },
  {
    "Compound": "CC#CC(=O)N1C2CN[C@@H](C2)C1c1nc(-c2ccc(C(=O)Nc3cc(C)ccn3)cc2)c2c(N)nccn12 (some centres unmarked)",
    "Experimental System": "DOHH2 cells",
    "Limit Qualifier": ">",
    "Numeric Readout": 1000
  },
  {
    "Compound": "C=CC(=O)N1CC2CCCC2C1c1nc(-c2ccc(C(C)(O)c3ccccc3)cc2)c2c(N)nccn12 (centres unmarked)",
    "Experimental System": "DOHH2 cells",
    "Limit Qualifier": "=",
    "Numeric Readout": 212
  },
  {
    "Compound": "C=CC(=O)N1CC2CCC1(c1nc(-c3ccc(C(=O)Nc4ccccn4)cc3)c3c(N)nccn13)CC2",
    "Experimental System": "DOHH2 cells",
    "Limit Qualifier": "=",
    "Numeric Readout": 921
  },
  {
    "Compound": "C=CC(=O)N1CCC2CC21c1nc(-c2ccc(C(=O)Nc3ccccn3)cc2)c2c(N)nccn12 (centres unmarked)",
    "Experimental System": "DOHH2 cells",
    "Limit Qualifier": ">",
    "Numeric Readout": 1000
  },
  {
    "Compound": "C=CC(=O)N1C2CC[C@@H](C2)C1c1nc(-c2ccc(C(=O)Nc3cc(C)ccn3)cc2)c2c(N)nccn12 (some centres unmarked)",
    "Experimental System": "DOHH2 cells",
    "Limit Qualifier": "=",
    "Numeric Readout": 179
  },
  {
    "Compound": "C=CC(=O)N1C2C[C@@H](C1c1nc(-c3ccc(C(C)(O)c4ccccc4)cc3)c3c(N)nccn13)N(C(C)C)C2 (some centres unmarked)",
    "Experimental System": "DOHH2 cells",
    "Limit Qualifier": "=",
    "Numeric Readout": 96
  },
  {
    "Compound": "CC#CC(=O)N1C2CN[C@@H](C2)C1c1nc(-c2ccc(C(=O)Nc3cc(C(F)(F)F)ccn3)cc2)c2c(N)nccn12 (some centres unmarked)",
    "Experimental System": "DOHH2 cells",
    "Limit Qualifier": "=",
    "Numeric Readout": 166
  },
  {
    "Compound": "CC#CC(=O)N1CCC[C@H]1c1nc(-c2ccc(C(=O)Nc3ccccn3)cc2)c2c(N)nccn12 [ACP-196, reference compound]",
    "Experimental System": "DOHH2 cells",
    "Limit Qualifier": ">",
    "Numeric Readout": 1000
  },
  {
    "Compound": "C=CC(=O)N1C2C[C@@H](C1c1nc(-c3ccc(Oc4ccccc4)cc3)c3c(N)nccn13)N(C)C2 (some centres unmarked)",
    "Experimental System": "DOHH2 cells",
    "Limit Qualifier": ">",
    "Numeric Readout": 1000
  },
  {
    "Compound": "CC#CC(=O)N1C2CC[C@@H](C2)C1c1nc(-c2ccc(C(C)(O)c3ccccc3)cc2)c2c(N)nccn12 (some centres unmarked)",
    "Experimental System": "DOHH2 cells",
    "Limit Qualifier": "=",
    "Numeric Readout": 618
  },
  {
    "Compound": "C=CC(=O)N1C2C[C@@H](C1c1nc(-c3ccc(C(=O)Nc4cc(C(F)(F)F)ccn4)cc3)c3c(N)nccn13)N(C(C)C)C2 (some centres unmarked)",
    "Experimental System": "DOHH2 cells",
    "Limit Qualifier": "=",
    "Numeric Readout": 97
  },
  {
    "Compound": "CC#CC(=O)N1C2CN[C@@H](C2)C1c1nc(-c2ccc(C(C)(O)c3ccccc3)cc2)c2c(N)nccn12 (some centres unmarked)",
    "Experimental System": "DOHH2 cells",
    "Limit Qualifier": "=",
    "Numeric Readout": 786
  }
]
